B1: H2-Kb / Ed8 (parent complex)
chain 1: AQSVTQPDARVTVSEGASLQLRCKYSYFGTPYLFWYVQYPRQGLQLLLKYYPGDPVVQGVNGFEAEFSKSNSSFHLRKASVHWSDWAVYFCAVSPGSGGKLTLGAGTRLQVNL
chain 2: DSGVVQSPRHIIKEKGGRSVLTCIPISGHSNVVWYQQTLGKELKFLIQHYEKVERDKGFLPSRFSVQQFDDYHSEMNMSALELEDSAMYFCASSPRASNYTFGSGTRLLVI
chain 3: not shown
chain 4: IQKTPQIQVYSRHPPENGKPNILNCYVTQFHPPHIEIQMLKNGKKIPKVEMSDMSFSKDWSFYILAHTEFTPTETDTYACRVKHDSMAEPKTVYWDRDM
chain 5: SIINFEKL

Variants of: B1
Assay: % of reporter cells activated (NFAT-GFP), raw; further: test concentration or dose not given here
I'd appreciate it if you could supply ratio to parent values for the items below.
Please respond with just the number, no unit label.

QUERY: # ratio to parent lookup, item chain 5 I3P
RESULT: 1.25

QUERY: # ratio to parent lookup, item chain 5 I2K
RESULT: 1.18

QUERY: # ratio to parent lookup, item chain 5 I3N
RESULT: 1.32
